tgt: APE1 (Homo sapiens, UniProt P27695)
Construct: made in house
Sequence (P27695 whole entry): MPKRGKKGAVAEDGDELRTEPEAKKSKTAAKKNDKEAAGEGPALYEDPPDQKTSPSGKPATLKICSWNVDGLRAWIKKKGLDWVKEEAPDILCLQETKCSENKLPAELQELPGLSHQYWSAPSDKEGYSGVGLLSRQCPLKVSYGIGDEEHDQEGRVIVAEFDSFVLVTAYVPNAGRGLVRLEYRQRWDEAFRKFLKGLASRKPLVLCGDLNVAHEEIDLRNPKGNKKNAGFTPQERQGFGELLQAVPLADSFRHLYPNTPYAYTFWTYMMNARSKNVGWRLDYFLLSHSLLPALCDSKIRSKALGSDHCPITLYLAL
experiment: Gel-based APE1 incision assay with fluorescence (TAMRA) detection
Type: biochemical
runParameters: estimated IC50, fluorophore detection; entries 113-223; read-out: F-PAGE Assay IC50
propertyLabel: IC50 (µM)
# unit: µM | format: bare number

Study these solved cases before continuing.
Request the reported IC50 associated with "COC(=O)c1cc(NC(=O)Cc2cccs2)cc(C(=O)OC)c1" 7.1

Query CC1=C(C(=O)OC(C)C)C(c2ccc(Cl)cc2)n2c(s/c(=C\c3ccc(OCC(=O)O)cc3)c2=O)=N1 (centres unmarked) next 1.4

Continuing:
Request the reported IC50 associated with "Nc1c(C(=O)OCC(=O)Nc2cccc([N+](=O)[O-])c2)[nH]c(=O)[nH]c1=O" 7.9

Query "COc1ccc(NC(=O)c2cc(-c3ccco3)nc3ccccc23)cn1" next 7.1

Query "O=C1C=C(c2ccc3cc[nH]c3c2)C[C@@H](c2ccc3c(c2)OCO3)C1" next 3.2

Query "O=C(O)c1ccc(-c2ccc(/C=c3/sc4nc5ccccc5n4c3=O)o2)cc1Cl" next 7.1

Query "CN(CC(=O)Nc1c(Cl)cccc1Cl)C(=O)c1cccc(-n2cccc2)c1" next 2.5

Query "Cc1cccc(NC(=O)CNC(=O)CCc2nc3sc4c(c3c(=O)[nH]2)CCCC4)c1C" next 4
